Where do these numbers come from? They come from patent US20220378706A1.

# protocol_summary: Single dose clinical study: plasma Compound A pharmacokinetics
# Format: in vivo, human
# test_parameters: human, plasma, po, 100 mg, plasma, Part B 100 mg cohort, single oral 100 mg, Fasted; read-out: t1/2 Mean (SD) (converted)
experimental_endpoint: half-life (h)

structure_as_smiles=COc1ncc(C)c(-c2ccc3c(c2)[nH]c(=O)c2cnn([C@H]4CCOC4)c23)c1C experimental_endpoint=half-life reported_result=25.7

###

# protocol_summary: Single dose clinical study: plasma Compound A pharmacokinetics
# Format: in vivo, human
# test_parameters: human, plasma, oral, 400 mg, non-Japanese, 400 mg, with weight as covariate; read-out: Cmax Geometric LS Means Reference
experimental_endpoint: Cmax

compound="COc1ncc(C)c(-c2ccc3c(c2)[nH]c(=O)c2cnn([C@H]4CCOC4)c23)c1C [Compound A]" experimental_endpoint=Cmax reported_result="833 ng/mL"

###

# protocol_summary: Single dose clinical study: plasma Compound A pharmacokinetics
# Assay type: in vivo, human
# test_parameters: human, plasma, po, 25 mg, plasma, healthy adults (Parts A,B), single oral 25 mg, fasted; read-out: Vz/F GM
experimental_endpoint: Vd/F (L)

structure_as_smiles=COc1ncc(C)c(-c2ccc3c(c2)[nH]c(=O)c2cnn([C@H]4CCOC4)c23)c1C uom=L reported_result=216

###

# protocol_summary: Single dose clinical study: plasma Compound A pharmacokinetics
# Format: in vivo, human
# test_parameters: human, plasma, po, 400 mg, plasma, Non-Japanese Subjects (Parts A,B), single oral 400 mg; read-out: tmax Median
experimental_endpoint: Tmax (h)

structure_as_smiles=COc1ncc(C)c(-c2ccc3c(c2)[nH]c(=O)c2cnn([C@H]4CCOC4)c23)c1C experimental_endpoint=Tmax uom=h reported_result=3

###

# protocol_summary: Single dose clinical study: plasma Compound A pharmacokinetics
# Format: in vivo, human
# test_parameters: human, plasma, po, 400 mg, plasma, Non-Japanese Subjects (Parts A,B), single oral 400 mg; read-out: AUC(0-inf) GM
experimental_endpoint: AUC(0-inf) (ng·h/mL)

structure_as_smiles=COc1ncc(C)c(-c2ccc3c(c2)[nH]c(=O)c2cnn([C@H]4CCOC4)c23)c1C reported_result=35800

###

# protocol_summary: Single dose clinical study: plasma Compound A pharmacokinetics
# Type: in vivo, human
# test_parameters: human, plasma, po, 400 mg, plasma, Japanese Subjects (Part D), single oral 400 mg; read-out: AUC(0-inf) GM
experimental_endpoint: AUC(0-inf) (ng·h/mL)

molecule="COc1ncc(C)c(-c2ccc3c(c2)[nH]c(=O)c2cnn([C@H]4CCOC4)c23)c1C [Compound A]" reported_result=46500

###

# protocol_summary: Single dose clinical study: plasma Compound A pharmacokinetics
# Assay type: in vivo, human
# test_parameters: human, plasma, po, 50 mg, plasma, healthy adults (Parts A,B), single oral 50 mg, fasted; read-out: Vz/F GM
experimental_endpoint: Vd/F (L)

structure_as_smiles=COc1ncc(C)c(-c2ccc3c(c2)[nH]c(=O)c2cnn([C@H]4CCOC4)c23)c1C reported_result=233

###

# protocol_summary: Single dose clinical study: plasma Compound A pharmacokinetics
# Type: in vivo, human
# test_parameters: human, plasma, oral, 400 mg, non-Japanese, 400 mg, with weight as covariate; read-out: AUC(O-inf) Geometric LS Means Reference
experimental_endpoint: AUC (ng·h/mL)

structure_as_smiles=COc1ncc(C)c(-c2ccc3c(c2)[nH]c(=O)c2cnn([C@H]4CCOC4)c23)c1C experimental_endpoint=AUC reported_result=36000
